- Test target: BuChE (Homo sapiens)
- Experiment notes: biochemical
Measured property: IC50 (µM)
Please respond with the number in µM and leave the unit unwritten.

Value (IC50, BuChE (Homo sapiens)) for record O=C(Cc1ccccc1)OCC1CCN(Cc2ccccc2)CC1 = 256

====

- Test target: BuChE (Homo sapiens, UniProt P06276)
- Sequence (P06276 29-602): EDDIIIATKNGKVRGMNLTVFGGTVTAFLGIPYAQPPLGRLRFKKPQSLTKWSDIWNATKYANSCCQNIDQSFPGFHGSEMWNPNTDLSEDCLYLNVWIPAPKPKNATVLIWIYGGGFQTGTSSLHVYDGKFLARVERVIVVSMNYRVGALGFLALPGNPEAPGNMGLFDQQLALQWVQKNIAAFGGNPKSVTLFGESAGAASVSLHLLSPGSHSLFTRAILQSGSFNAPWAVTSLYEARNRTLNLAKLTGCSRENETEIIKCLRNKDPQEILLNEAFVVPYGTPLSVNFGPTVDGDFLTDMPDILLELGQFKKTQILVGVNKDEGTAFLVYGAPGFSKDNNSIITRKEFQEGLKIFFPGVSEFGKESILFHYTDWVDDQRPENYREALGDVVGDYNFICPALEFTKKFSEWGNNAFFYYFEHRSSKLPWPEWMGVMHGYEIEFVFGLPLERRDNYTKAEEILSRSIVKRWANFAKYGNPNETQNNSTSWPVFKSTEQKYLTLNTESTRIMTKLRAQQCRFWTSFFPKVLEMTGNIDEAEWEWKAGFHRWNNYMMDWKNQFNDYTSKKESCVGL
- Experiment notes: biochemical
- Test settings: means ± SD of three determinations; 30 min preincubation at 25 °C, pH 7.5; read-out: BuChE IC50
Exercise: state measured IC50 for each of the molecules provided.

IC50 recorded for this molecule, COc1cccc(C(=O)N2CCC(CN3CCc4cc(OC)c(OC)cc4C3)CC2)c1 , is > 500 µM

IC50 recorded for this molecule, COc1cc2c(cc1OC)CN(C(=O)C1CCN(Cc3cccc(Br)c3)CC1)CC2 , is 426 µM

IC50 recorded for this molecule, O=C(OCC1CCN(Cc2ccccc2)CC1)c1ccc2ccccc2c1 , is 59.3 µM

IC50 recorded for this molecule, COc1cc2c(cc1OC)CN(CC1CCN(C(=O)c3cccc(F)c3)CC1)CC2 , is > 500 µM

IC50 recorded for this molecule, COc1cc2c(cc1OC)CN(CC1CCN(C(=O)c3cccc(Cl)c3)CC1)CC2 , is > 500 µM

IC50 recorded for this molecule, O=C(Cc1ccc(F)cc1)OCC1CCN(Cc2ccccc2)CC1 , is 26.8 µM

IC50 recorded for this molecule, O=C(OCC1CCN(Cc2ccccc2)CC1)C(c1ccccc1)c1ccccc1 , is 6.16 µM

IC50 recorded for this molecule, COc1cc2c(cc1OC)CN(C(=O)C1CCN(Cc3ccccc3)CC1)CC2 , is > 500 µM

IC50 recorded for this molecule, COc1cc2c(cc1OC)CN(C(=O)C1CCN(Cc3cccc(Cl)c3)CC1)CC2 , is 268 µM

IC50 recorded for this molecule, COc1cc2c(cc1OC)CN(CC1CCN(C(=O)c3cccc(Br)c3)CC1)CC2 , is > 500 µM

IC50 recorded for this molecule, COc1cc2c(cc1OC)CN(C(=O)C1CCN(Cc3cccc(F)c3)CC1)CC2 , is > 500 µM

IC50 recorded for this molecule, COc1cc2c(cc1OC)CN(CC1CCN(C(=O)c3ccccc3)CC1)CC2 , is > 500 µM

IC50 recorded for this molecule, COc1cc2c(cc1OC)CN(C(=O)C1CCN(Cc3ccc(Cl)cc3Cl)CC1)CC2 , is > 500 µM

IC50 recorded for this molecule, O=C(Cc1ccc(Cl)cc1)OCC1CCN(Cc2ccccc2)CC1 , is > 500 µM
